Numbers sourced from ChEMBL document CHEMBL2010665.

# assayedSystem: Nitric oxide synthase, inducible (Homo sapiens, UniProt P35228)
# Sequence (P35228 whole entry): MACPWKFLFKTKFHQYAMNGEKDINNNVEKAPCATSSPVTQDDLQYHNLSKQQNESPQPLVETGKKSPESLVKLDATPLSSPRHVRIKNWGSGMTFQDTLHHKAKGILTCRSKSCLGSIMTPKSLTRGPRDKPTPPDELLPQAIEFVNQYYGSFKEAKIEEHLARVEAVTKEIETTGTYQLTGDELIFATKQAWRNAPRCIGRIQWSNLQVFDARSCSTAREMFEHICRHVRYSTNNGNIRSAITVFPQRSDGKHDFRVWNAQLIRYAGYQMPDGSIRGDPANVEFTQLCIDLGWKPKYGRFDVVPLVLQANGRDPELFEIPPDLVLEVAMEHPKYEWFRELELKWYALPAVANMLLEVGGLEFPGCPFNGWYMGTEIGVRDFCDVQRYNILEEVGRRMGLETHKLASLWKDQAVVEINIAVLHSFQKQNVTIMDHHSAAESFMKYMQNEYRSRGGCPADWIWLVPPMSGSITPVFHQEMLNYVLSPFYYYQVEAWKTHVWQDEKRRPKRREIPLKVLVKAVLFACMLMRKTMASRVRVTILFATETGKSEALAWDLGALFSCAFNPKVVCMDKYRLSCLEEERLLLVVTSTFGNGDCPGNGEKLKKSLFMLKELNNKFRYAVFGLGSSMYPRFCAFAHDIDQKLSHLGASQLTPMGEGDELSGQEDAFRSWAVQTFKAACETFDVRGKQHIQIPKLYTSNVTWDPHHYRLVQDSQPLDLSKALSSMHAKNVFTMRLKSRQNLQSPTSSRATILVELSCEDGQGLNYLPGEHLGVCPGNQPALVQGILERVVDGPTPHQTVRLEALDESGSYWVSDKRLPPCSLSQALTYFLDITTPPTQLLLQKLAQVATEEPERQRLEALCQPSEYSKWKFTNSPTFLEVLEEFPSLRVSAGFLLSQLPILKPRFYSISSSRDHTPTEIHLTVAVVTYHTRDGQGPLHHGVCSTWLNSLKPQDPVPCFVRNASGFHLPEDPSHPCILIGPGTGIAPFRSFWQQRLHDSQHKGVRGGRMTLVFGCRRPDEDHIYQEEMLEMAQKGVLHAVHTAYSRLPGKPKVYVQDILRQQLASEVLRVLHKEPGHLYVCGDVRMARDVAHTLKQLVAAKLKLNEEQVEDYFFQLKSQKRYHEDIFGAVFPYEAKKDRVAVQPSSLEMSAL
# assayOverview: Inhibition of human recombinant iNOS expressed in baculovirus infected insect sf9 cells assessed as conversion of [3H]-L-arginine into [3H]-L-citrulline by radiometric method
pIC50: −log10 of the molar value.
# pIC50 per entry

Example cases with answers are listed next.
Could you share which pIC50 value was measured for CN1CCCC1CCN1CCCCc2cc(NC(=N)c3cccs3)ccc21 (racemic) ?
< 4.00

And CNCCN1CCCCc2cc(NC(=N)c3cccs3)ccc21 ?
< 4.00

Would you kindly look at the next entry?
Could you share which pIC50 value was measured for CN1CCC(N2CCCCc3cc(NC(=N)c4cccs4)ccc32)C1 (racemic) ?
< 4.00
